These data points were gathered from ChEMBL document CHEMBL4354820.

molecular target: ATP-dependent translocase ABCB1 (Homo sapiens); test: Reversal of P-gp mediated multidrug resistance in human DU145-TxR cells overexpressing P-gp assessed as potentiation of paclitaxel-induced cytotoxicity by measuring fold reduction paclitaxel IC50 at 10 uM after 48 hrs by MTT assay relative to parent compound; type: cell-based
Sequence (P08183 whole entry): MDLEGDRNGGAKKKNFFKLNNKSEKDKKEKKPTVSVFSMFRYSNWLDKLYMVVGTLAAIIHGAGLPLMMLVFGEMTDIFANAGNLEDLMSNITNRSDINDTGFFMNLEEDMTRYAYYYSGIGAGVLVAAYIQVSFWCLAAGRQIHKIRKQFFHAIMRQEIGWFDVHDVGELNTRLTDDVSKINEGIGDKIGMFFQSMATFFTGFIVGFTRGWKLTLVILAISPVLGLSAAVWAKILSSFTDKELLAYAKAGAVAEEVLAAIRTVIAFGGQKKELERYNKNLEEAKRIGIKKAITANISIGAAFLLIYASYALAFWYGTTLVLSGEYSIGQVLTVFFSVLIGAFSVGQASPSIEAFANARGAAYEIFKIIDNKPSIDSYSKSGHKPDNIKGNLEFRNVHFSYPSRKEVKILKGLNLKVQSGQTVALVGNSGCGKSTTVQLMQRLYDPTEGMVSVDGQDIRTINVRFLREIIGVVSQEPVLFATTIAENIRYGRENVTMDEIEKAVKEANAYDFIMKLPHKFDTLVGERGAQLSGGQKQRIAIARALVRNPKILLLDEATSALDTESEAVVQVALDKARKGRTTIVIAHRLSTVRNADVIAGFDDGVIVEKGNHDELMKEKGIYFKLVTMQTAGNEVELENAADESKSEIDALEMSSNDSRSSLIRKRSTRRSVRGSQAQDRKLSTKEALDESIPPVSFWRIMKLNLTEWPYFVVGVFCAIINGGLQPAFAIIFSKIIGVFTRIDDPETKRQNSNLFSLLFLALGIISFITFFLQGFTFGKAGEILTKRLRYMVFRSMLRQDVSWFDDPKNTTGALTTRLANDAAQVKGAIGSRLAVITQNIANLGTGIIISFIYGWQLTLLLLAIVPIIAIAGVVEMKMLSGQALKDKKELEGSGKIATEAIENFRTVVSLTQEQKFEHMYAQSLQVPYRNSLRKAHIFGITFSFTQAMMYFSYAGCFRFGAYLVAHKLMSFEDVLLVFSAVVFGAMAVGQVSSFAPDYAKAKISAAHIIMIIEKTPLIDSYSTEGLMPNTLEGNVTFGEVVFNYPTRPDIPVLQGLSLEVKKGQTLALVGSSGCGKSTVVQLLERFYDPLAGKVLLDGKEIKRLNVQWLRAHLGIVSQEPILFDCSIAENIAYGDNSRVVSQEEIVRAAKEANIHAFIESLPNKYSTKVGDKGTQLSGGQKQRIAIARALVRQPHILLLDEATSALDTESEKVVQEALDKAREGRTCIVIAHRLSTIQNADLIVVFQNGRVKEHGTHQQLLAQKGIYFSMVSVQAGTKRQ
In this scheme, each record receives a class according to its fold change (FC); the ranges are lo (below 2), mid (2 to below 5), hi (5 or more)

1) Cc1cc(C)c(-c2cc(NC(=O)CSCC(=O)NCc3ccc(F)cc3)n(-c3ccccc3)n2)cc1C | lo

Which category fits this record: Cc1cc(C)c(-c2cc(NC(=O)CSc3n[nH]c(C4CC4)n3)n(-c3ccccc3)n2)cc1C
lo

Hi, small favor: classify Cc1cc(C)c(-c2cc(NC(=O)CSCC(=O)Nc3ccc4ccccc4c3)n(-c3ccccc3)n2)cc1C by its fold change (FC) when you get a moment.
hi

Form: Item = Cc1cc(C)c(-c2cc(NC(=O)CSCC(=O)Nc3ccc4ncsc4c3)n(-c3ccccc3)n2)cc1C ; Class = ?
hi

Category of Cc1cc(C)c(-c2cc(NC(=O)CSc3cccc(NC(=O)c4cncc(Br)c4)c3)n(-c3ccccc3)n2)cc1C :
mid

Exercise: read the entry Cc1cc(C)c(-c2cc(NC(=O)CSCC(=O)NC(c3ccccc3)c3ccccc3)n(-c3ccccc3)n2)cc1C and state which class it falls under.
lo

Which band does COc1cc(NC(=O)CSCC(=O)Nc2cc(-c3cc(C)c(C)cc3C)nn2-c2ccccc2)cc(OC)c1OC fall in?
hi

Lab log: Cc1cc(C)c(-c2cc(NC(=O)CSCC(=O)c3ccc4c(c3)Cc3ccccc3-4)n(-c3ccccc3)n2)cc1C — assign fold change (FC) category
lo

Please let me know in which category the item Cc1cc(C)c(-c2cc(NC(=O)CSc3nnc4c(n3)[nH]c3ccccc34)n(-c3ccccc3)n2)cc1C belongs.
mid
